Can you tell me MIC for the items I'm about to list?
- System: Enterococcus faecalis (efa)
- Assay procedure: In vitro antibacterial activity, standard agar dilution method, efa
- Assay type: cell-based
- Measurement parameters: clinically separated strains, read-out: Antibiotic Activity MIC efa
Field note: include the unit after the figure.

Give its MIC value. Item: "Cn1nnnc1N1Cc2ccc(-c3ccc(N4C[C@H](CO)OC4=O)cc3F)cc2C1" 2 µg/mL

Fill in the blank: the reported MIC of "O=C1O[C@@H](CO)CN1c1ccc(-c2ccc3c(c2)CN(c2cnn[nH]2)C3)c(F)c1" is ____. 0.5 µg/mL

Required: MIC, one value per compound below.
1. Cn1nnc(N2Cc3ccc(-c4ccc(N5C[C@H](CO)OC5=O)cc4F)cc3C2)n1
2. O=C1O[C@@H](CO)CN1c1ccc(-c2ccc3c(c2)CN(c2ccn[nH]2)C3)c(F)c1
3. CC(=O)NC[C@H]1CN(c2ccc(N3CCOCC3)c(F)c2)C(=O)O1 [Linezolid, reference compound]
4. CC(=O)NC[C@H]1CN(c2ccc(-c3ccc4nc(-c5nnn(C)n5)cn4c3)c(F)c2)C(=O)O1 [Compound 38, reference compound]
5. CC(=O)NC[C@H]1CN(c2ccc(-c3ccc4c(c3)CN(c3nnn(C)n3)C4)c(F)c2)C(=O)O1
6. CC(=O)NC[C@H]1CN(c2ccc(-c3ccc4c(c3)CN(c3cnn[nH]3)C4)c(F)c2)C(=O)O1

1 µg/mL
8 µg/mL
2 µg/mL
0.25 µg/mL
0.5 µg/mL
0.25 µg/mL

The measurements presented in this section are drawn from patent US9487545B2.
